Provenance of the data: PubChem BioAssay AID652054

For each record, write down the corresponding max response, negative = inhibition.
TARGET OR TEST SYSTEM: D(3) dopamine receptor (Homo sapiens) (UniProt P35462)
Sequence (P35462 whole entry, looked up): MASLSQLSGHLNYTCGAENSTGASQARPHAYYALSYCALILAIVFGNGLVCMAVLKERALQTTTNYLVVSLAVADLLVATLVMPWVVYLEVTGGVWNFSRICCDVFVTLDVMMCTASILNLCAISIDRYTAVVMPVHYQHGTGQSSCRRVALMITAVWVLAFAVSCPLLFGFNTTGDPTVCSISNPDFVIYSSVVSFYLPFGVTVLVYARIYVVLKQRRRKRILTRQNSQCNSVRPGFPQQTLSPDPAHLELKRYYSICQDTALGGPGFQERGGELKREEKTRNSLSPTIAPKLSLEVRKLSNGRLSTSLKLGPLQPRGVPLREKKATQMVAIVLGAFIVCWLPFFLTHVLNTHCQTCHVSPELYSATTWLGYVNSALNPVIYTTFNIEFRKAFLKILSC
METHOD NOTES: qHTS of D3 Dopamine Receptor Antagonist: qHTS; note: % is set by controls: 0 for no effect and ±100 for the full control effect
DETAILS: D3R cells, DiscoveRx beta-arrestin luminescence, antagonist mode; stronger effect = lower value
Out of some 360,000 compounds screened, about 9,100 (2.5%) were called active. Inconclusive results (about 4%) are left out. What follows is part of a selection rich in actives, with near analogues and random picks from the rest.
Hi! Could you send only the number? It should be in %, unit omitted.

Data point: Cc1cccc(C)c1Cn1c(C)c(C(=O)NCc2cccc(Cl)c2)sc1=O ; max response, negative = inhibition = -105

Query Cc1c(C(=O)NCC2CC2)sc(=O)n1Cc1cccc(F)c1 yields max response, negative = inhibition of 11.5

Record CCCc1ccc(S(=O)(=O)N2CCN(C(=O)c3cc(C)on3)CC2)cc1 , field max response, negative = inhibition: 15.8

max response, negative = inhibition reported for this molecule CC(C)OC(=O)CC(=O)CC(O)c1cccc([N+](=O)[O-])c1 (centres undefined) : -17.6

----------
TARGET OR TEST SYSTEM: D(3) dopamine receptor (Homo sapiens)
METHOD NOTES: qHTS of D3 Dopamine Receptor Antagonist: qHTS; note: % is set by controls: 0 for no effect and ±100 for the full control effect
DETAILS: D3R cells, DiscoveRx beta-arrestin luminescence, antagonist mode; stronger effect = lower value
About 9,100 (2.5%) of roughly 360,000 compounds were called active. Inconclusive results (about 4%) are left out. The entries come from a sample that favours actives as a whole.
OBSERVATION TYPE: max response, negative = inhibition

The compound OC[C@@H]1CN(Cc2ccc3c(c2)OCO3)C[C@H](n2cnc3c(NCc4ccco4)ncnc32)O1 showed max response, negative = inhibition equal to -5.45% (inactive)

Summary for this compound, O=[N+]([O-])c1ccc(N2CCSCC2)cc1O : max response, negative = inhibition is -6.65% (inactive)

The compound CCOC(=O)C(NC(C)=O)C(=O)Nc1ccc(OC)cc1 (configuration not stated) showed max response, negative = inhibition equal to -11.9% (inactive)

Measured max response, negative = inhibition, CCc1ccccc1NC(=O)CSc1nnc([C@@H](NC(=O)OC(C)(C)C)C(C)CC)o1 (some centres not stated) : -1.74% (inactive)

Memo: CC(C)Cn1cc(-c2cncc3nccn23)cn1 , reported max response, negative = inhibition: 19.7% (inactive)

So, COCOCCn1cc(CN2CCS(=O)(=O)N(Cc3ccc(-c4ccccc4)cc3)C(CC(C)C)C2=O)nn1 (configuration not stated) ? Its max response, negative = inhibition was 13% (inactive)

Measured max response, negative = inhibition, COC(=O)c1cc(OC)ccc1-c1ccc(OC)cc1 : -8.91% (inactive)

----------
TARGET OR TEST SYSTEM: D(3) dopamine receptor (Homo sapiens) (UniProt P35462)
METHOD NOTES: qHTS of D3 Dopamine Receptor Antagonist: qHTS; note: % is set by controls: 0 for no effect and ±100 for the full control effect
DETAILS: D3R cells, DiscoveRx beta-arrestin luminescence, antagonist mode; stronger effect = lower value
The campaign covered roughly 360,000 compounds. About 9,100 (2.5%) were called active. Inconclusive results (about 4%) are left out. What follows is part of a selection rich in actives, with near analogues and random picks from the rest.
OBSERVATION TYPE: max response, negative = inhibition (%)
Field format: number, assumed %, no unit text.

Value of max response, negative = inhibition reported for the compound O=C(NC1CCCC1)C1c2ccccc2OCC(=O)N1Cc1ccccc1 (centres undefined) is 4.78

In plain terms, CCCNC(=O)C1(C)CCCN(C(=O)c2cccc(OC(C)=O)c2C)C1 (centres undefined) has a documented max response, negative = inhibition of 9.36

Recorded max response, negative = inhibition (compound CC(=O)Nc1cccc(OCC(=O)/C=C2\N(C)c3ccccc3C2(C)C)c1 ): 12.1

Value of measured max response, negative = inhibition for the entry COc1cc(CNc2ncnc3c2ncn3[C@H]2CN(Cc3cccs3)C[C@@H](CO)O2)cc(OC)c1OC : 13

The compound listed as N#Cc1cccc(NC(=O)COC(=O)c2ccccc2C(=O)c2ccc(Cl)c([N+](=O)[O-])c2)c1 has a reported max response, negative = inhibition of -50.7

Summary for this compound, CN(Cc1ccccc1)Cc1ccccc1F : max response, negative = inhibition is -76.7

Value of max response, negative = inhibition reported for the compound CNC(=O)C1CN(C(=O)c2cccc(S(=O)(=O)N3CCc4ccccc43)c2)c2ccccc2O1 (centres undefined) is -27.2

So, Cc1cc(C=O)c(C)n1-c1ccc(NC2CCCCC2)c([N+](=O)[O-])c1 ? Its max response, negative = inhibition was -55.1

For this compound ( COc1ccc(-c2ccc(CN3C(CC(C)C)C(=O)N(Cc4cn(CC5CCCCC5)nn4)CCS3(=O)=O)cc2)cn1 (centres undefined) ), measured max response, negative = inhibition is 0.993

Measured max response, negative = inhibition, CC(=O)c1cc2c(cc1NC(=O)CN1CCCCCC1)OCO2 : -65

Field max response, negative = inhibition (entry C[C@H]1CN([C@@H](C)CO)C(=O)CCCn2cc(nn2)CO[C@@H]1CN(C)S(=O)(=O)c1ccccc1C#N ) reads -12.5

Item: CCOC(=O)C1=CC[C@@H](c2ccncc2)N(S(=O)(=O)c2ccc(C)cc2)C1 | max response, negative = inhibition: -4.07

Item: COc1cccc(CC2(CO)CCN(Cc3cnc(-c4cccc(C)c4)nc3)CC2)c1 | max response, negative = inhibition: 33.5

Form: compound = COc1ccc(-n2nnc3c(=O)n(CC(=O)N4CCC(Cc5ccccc5)CC4)cnc32)cc1 ; max response, negative = inhibition = -29.9

----------
For each record, write down the corresponding max response, negative = inhibition.
TARGET OR TEST SYSTEM: D(3) dopamine receptor (Homo sapiens)
METHOD NOTES: qHTS of D3 Dopamine Receptor Antagonist: qHTS; note: % is set by controls: 0 for no effect and ±100 for the full control effect
DETAILS: D3R cells, DiscoveRx beta-arrestin luminescence, antagonist mode; stronger effect = lower value
The whole screen tested about 360,000 compounds, of which about 9,100 (2.5%) were called active. Another 4% or so got no clear call; they are omitted. The entries come from a sample that favours actives as a whole.
Just the number in %, nothing appended.

Sure, the documented max response, negative = inhibition for CCOC(=O)c1[nH]c2ccc(OC)cc2c1NC(=O)CCN1CCN(Cc2ccccc2)CC1 is -54.8

FC(F)(F)C1CCCN(c2nsc3ccccc23)C1 (configuration not stated) yielded max response, negative = inhibition of -81.7

The reported value for CCCc1c(C)nc2scc(-c3ccc(Cl)cc3)n2c1=O in terms of max response, negative = inhibition is 3.72

Recorded max response, negative = inhibition (molecule COc1ccc(CCNC(=O)COC(=O)/C=C/c2cccs2)cc1OC ): -11.9

GET /value?item= C[C@H]1COc2cc(N3CCSCC3)ccc2S(=O)(=O)N1 &field=max response, negative = inhibition returns -22.5

Per the records, this molecule ( CCc1nnc(NC(=O)c2ccco2)s1 ) has max response, negative = inhibition equal to -7.74

get_value(item= CC1(C)CCSC(/C=C/c2ccccc2)=N1 , readout=max response, negative = inhibition) returns -74.9

----------
TARGET OR TEST SYSTEM: D(3) dopamine receptor (Homo sapiens) (UniProt P35462)
METHOD NOTES: qHTS of D3 Dopamine Receptor Antagonist: qHTS; note: % is set by controls: 0 for no effect and ±100 for the full control effect
DETAILS: D3R cells, DiscoveRx beta-arrestin luminescence, antagonist mode; stronger effect = lower value
Out of some 360,000 compounds screened, about 9,100 (2.5%) were called active. Roughly 4% stayed inconclusive and do not appear here. What follows is part of a selection rich in actives, with near analogues and random picks from the rest.
OBSERVATION TYPE: max response, negative = inhibition (%)
# output: bare number, implied unit %

# max response, negative = inhibition measured on D(3) dopamine receptor (Homo sapiens) (UniProt P35462) for item Cn1c(NCc2cccnc2)nc2cc(-c3ccc(F)cc3)sc2c1=O = 0

Case Cc1[nH]c2ccccc2c1C(=O)CN1CC(C)CC(C)C1 (stereo unspecified) , D(3) dopamine receptor (Homo sapiens) (UniProt P35462), max response, negative = inhibition recorded as -3.3

Entry Cc1cc(C(=O)N2CCCC2(C)C(=O)O)c(C)o1 (stereo unspecified) : max response, negative = inhibition on D(3) dopamine receptor (Homo sapiens) (UniProt P35462) = 16.6

Lab entry: D(3) dopamine receptor (Homo sapiens) (UniProt P35462) assay, compound CC(C)C1Cc2[nH][nH]c(=O)c2C(c2ccc(Cl)cc2)O1 (stereo unspecified) , max response, negative = inhibition = -0.765

Considering CCCNC(=O)c1cc(C2CCCCN2S(=O)(=O)c2ccc(C#N)cc2)on1 (stereo unspecified) , its max response, negative = inhibition with D(3) dopamine receptor (Homo sapiens) (UniProt P35462) was recorded as 15.7

Entry CNC[C@H]1OCc2cnnn2CCCC(=O)N([C@H](C)CO)C[C@@H]1C ; assay system D(3) dopamine receptor (Homo sapiens) (UniProt P35462); max response, negative = inhibition recorded at 11.4

Given the compound C=CCN1CCN(c2ccncc2S(=O)(=O)N2CCN(C)CC2)CC1 and test system D(3) dopamine receptor (Homo sapiens) (UniProt P35462), the measured max response, negative = inhibition is 26.6

Observed max response, negative = inhibition on D(3) dopamine receptor (Homo sapiens) (UniProt P35462), entry O=C1C=C(c2ccc(Cl)cc2)C(=O)N1Nc1ccccc1 , equals -22.9

Known value: D(3) dopamine receptor (Homo sapiens) (UniProt P35462) max response, negative = inhibition of the compound CC1CN(CCCOc2ccccc2-c2ccccc2)CC(C)O1 (stereo unspecified) equals -29.6

Let me check: CCOC(=O)C(C)n1cnc2c(nnn2-c2cccc(OC)c2)c1=O (stereo unspecified) , system D(3) dopamine receptor (Homo sapiens) (UniProt P35462), measured max response, negative = inhibition is -57.8

max response, negative = inhibition of c1cc(-c2nn[nH]n2)ccc1CN1CCCCC1 , assay on D(3) dopamine receptor (Homo sapiens) (UniProt P35462), is -18.9

The reported D(3) dopamine receptor (Homo sapiens) (UniProt P35462) max response, negative = inhibition of COc1ccccc1N1CCN(CC(=O)NC(=O)NCc2ccco2)CC1 is -22.2

For CC(Sc1nnc(-c2cccs2)n1C1CC1)C(=O)NCC1CCCO1 (stereo unspecified) on D(3) dopamine receptor (Homo sapiens) (UniProt P35462), measured max response, negative = inhibition was 15.9

Per the reported D(3) dopamine receptor (Homo sapiens) (UniProt P35462) data, CCCN(CCC)CCNC(=O)c1cc2c(C)nc3ccccc3c2o1 has max response, negative = inhibition of -52.4

Record CC(C)(O)C1=C[N+](=O)CC=C1 ; system D(3) dopamine receptor (Homo sapiens) (UniProt P35462); max response, negative = inhibition = -16.9

max response, negative = inhibition value, target or system D(3) dopamine receptor (Homo sapiens) (UniProt P35462), for CC(=O)c1cc(-c2ccccc2)[nH]c1N1CCCC1 : 0

Value sought: max response, negative = inhibition, system D(3) dopamine receptor (Homo sapiens) (UniProt P35462), item Cc1cccc(N(CC(O)CN(C)C)S(=O)(=O)c2ccccc2)c1 (stereo unspecified) . Result: 0.407

Sample CN1CCN(CCCCOc2ccccc2-c2ccccc2)CC1 , system: D(3) dopamine receptor (Homo sapiens) (UniProt P35462). Its max response, negative = inhibition is -71

Bench note, D(3) dopamine receptor (Homo sapiens) (UniProt P35462): entry O=C(COc1ccccc1[N+](=O)[O-])NC1CC1 , its max response, negative = inhibition = 16.3

I looked up COc1ccccc1N1CCN(c2ccc([N+](=O)[O-])nc2)CC1 and its max response, negative = inhibition for D(3) dopamine receptor (Homo sapiens) (UniProt P35462) was 5.81

Entry CC1=NN(c2ccc(Cl)c(C(=O)O)c2)C(=O)/C1=C/c1ccc(-c2ccccc2[N+](=O)[O-])o1 , tested on D(3) dopamine receptor (Homo sapiens) (UniProt P35462), has a reported max response, negative = inhibition of 8.21

Entry Cc1ccc(NC(=O)[C@H](Cc2ccccc2)NC(=O)CC[C@H]2O[C@@H](n3ccc(=O)[nH]c3=O)[C@H](O)[C@@H]2O)cc1C , D(3) dopamine receptor (Homo sapiens) (UniProt P35462) data, max response, negative = inhibition value: -15.6

Tested on D(3) dopamine receptor (Homo sapiens) (UniProt P35462): COC(=O)c1ccc2nc(-c3cccc(Br)c3)c(Cc3ccccc3C(F)(F)F)n2c1 . Observed max response, negative = inhibition: 0

Considering CCCCN(C=O)c1c(CC)nc2c(OCCC3CCCCC3)cccn12 , its max response, negative = inhibition with D(3) dopamine receptor (Homo sapiens) (UniProt P35462) was recorded as -10.7

Summary: CCOc1ccccc1-c1nc(CN2CCC(C(=O)N3CCOCC3)CC2)c(C)o1 , D(3) dopamine receptor (Homo sapiens) (UniProt P35462), max response, negative = inhibition = -15.7

Record for CSc1ncccc1C(=O)N1CCCC(Nc2ccc(F)c(F)c2)C1 (stereo unspecified) under target or system D(3) dopamine receptor (Homo sapiens) (UniProt P35462): max response, negative = inhibition reported as 1.51

Bench note, D(3) dopamine receptor (Homo sapiens) (UniProt P35462): entry CCOc1ccc(/C=C2\SC(=S)N(NC(=O)c3ccncc3)C2=O)cc1OC , its max response, negative = inhibition = -13.1

Fill in: D(3) dopamine receptor (Homo sapiens) (UniProt P35462) max response, negative = inhibition for CC(C)C[C@@H]1Cc2[nH][nH]c(=O)c2[C@H](CCc2ccccc2)O1 = -13

Record Clc1ccc(CN2CCCCCC2)cc1Cl ; system D(3) dopamine receptor (Homo sapiens) (UniProt P35462); max response, negative = inhibition = -62.3

Recorded max response, negative = inhibition for COC(=O)C[C@H]1C[C@@H]2c3cc(N(C)C)ccc3O[C@@H]2[C@H](CO)O1 on D(3) dopamine receptor (Homo sapiens) (UniProt P35462) was 17

Bench note, D(3) dopamine receptor (Homo sapiens) (UniProt P35462): entry Fc1ccccc1OCCCCn1cncn1 , its max response, negative = inhibition = 2.5

With D(3) dopamine receptor (Homo sapiens) (UniProt P35462) as the test system, COc1ccc(S(=O)(=O)N(C)C)cc1NC(=O)COC(=O)c1n[nH]c2ccccc12 showed max response, negative = inhibition of 16

Response field max response, negative = inhibition (D(3) dopamine receptor (Homo sapiens) (UniProt P35462)) for item CCOC(=O)c1cc(-c2sc(NC(=O)c3ccccc3)nc2C)n(CCO)n1 : -12.9

Here NC(Cc1ccc(F)cc1)c1csc(Nc2nncc3ccccc23)n1 (stereo unspecified) was tested on D(3) dopamine receptor (Homo sapiens) (UniProt P35462), and its max response, negative = inhibition came to 7.2

Reading of max response, negative = inhibition for Cc1ccc(/C=N/NC(=O)COc2ccccc2-c2ccccc2)cc1 with D(3) dopamine receptor (Homo sapiens) (UniProt P35462): 25.4

Entry Cn1cccc1/C=C1\SC(=S)N(NC(=O)c2ccc(Cl)cc2)C1=O under D(3) dopamine receptor (Homo sapiens) (UniProt P35462) had max response, negative = inhibition of -70.7
